test: chemical genetic growth profiling, strain panel (AID 1159580);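 note: tested at 20 µM; growth read once vehicle control cultures reached saturation at 30 °C; 1 = growth at the plate median or of vehicle wells; lower values mean less growth of the strain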; details: S. cerevisiae deletion strains, growth OD, locus YJL187C, strain SWE1, hits give low values
The whole screen tested about 5,500 compounds, of which about 2,000 (36%) were called active. Inconclusive results (about 18%) are left out. The list shows a part of the results.
Below, each of the compounds is paired with its reported normalized growth value.
property.name: normalized growth

compound=CC1(C)S[C@@H]2[C@H](NC(=O)[C@@H](N)c3ccc(O)cc3)C(=O)N2[C@H]1C(=O)O number=0.998
compound=CC1(C)[C@@H]2CC[C@@]1(C)C(=O)C2 number=1
compound="C[C@@H]1O[C@@H](O[C@H]2CC[C@]3(C=O)C4CC[C@]5(C)[C@@H](C6=CC(=O)OC6)CC[C@]5(O)C4CC[C@]3(O)C2)[C@H](O)[C@H](O)[C@H]1O (stereo partly drawn)" number=1
compound=N#Cc1c(Cl)cccc1Cl number=0.988
compound=N#Cc1c(Cl)cccc1N1CCC(C(=O)NC(=O)Nc2ccc(Cl)cc2)CC1 number=1.01
compound="C[C@H]1O[C@@H](O[C@H]2[C@@H](O)C[C@H](O[C@H]3[C@@H](O)C[C@H](O[C@H]4CC[C@]5(C)C6C[C@@H](O)[C@]7(C)[C@@H](C8=CC(=O)OC8)CC[C@]7(O)C6CC[C@@H]5C4)O[C@@H]3C)O[C@@H]2C)C[C@H](O)[C@@H]1O (stereo partly drawn)" number=0.993
compound=COc1cc([N+](=O)[O-])c(OC)cc1SCC(=O)NNC(=O)c1cc(OC)c(OC)c(OC)c1 number=1.01
compound=COc1ccc([N+](=O)[O-])c(OC)c1C(N)=O number=1.02

* * *

Reported normalized growth values for a set of molecules
test: chemical genetic growth profiling, strain panel (AID 1159580);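 note: tested at 20 µM; growth read once vehicle control cultures reached saturation at 30 °C; 1 = growth at the plate median or of vehicle wells; lower values mean less growth of the strain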; settings: S. cerevisiae deletion strains, growth OD, locus YHR200W, strain rpn10, hits give low values
The whole screen tested about 5,500 compounds, of which about 2,000 (36%) were called active. Inconclusive results (about 18%) are left out. The list shows a part of the results.
property.name: normalized growth

molecule="CSCCC(N)C(=O)NC(CC(C)C)C(=O)NC(Cc1ccccc1)C(=O)O (stereo unspecified)" number=0.995
molecule="CC1(C)C(O)CC(=O)C2(C)C1CC(O)C1(C)C2CCC2(C)C(c3ccoc3)OC(=O)C3OC321 (stereo unspecified)" number=1
molecule="C[C@@H](CO)NC(=O)C1C=C2c3cccc4[nH]cc(c34)C[C@H]2N(C)C1 (stereo partly specified)" number=0.988
molecule=O=C(O)c1cc(O)ccc1O number=0.989
molecule=N#Cc1c(Cl)cccc1Cl number=1.01
molecule=COC(=O)NC(=S)Nc1ccccc1NC(=S)NC(=O)OC number=1.01

* * *

assay: chemical genetic growth profiling, strain panel (AID 1159580);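 note: tested at 20 µM; growth read once vehicle control cultures reached saturation at 30 °C; 1 = growth at the plate median or of vehicle wells; lower values mean less growth of the strain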; details: S. cerevisiae deletion strains, growth OD, locus YJL115W, strain asf1, hits give low values
In all, about 5,500 compounds went through this assay and about 2,000 (36%) were called active. About 18% were inconclusive and are not listed. The list shows a part of the results.
property.name: normalized growth

molecule=C[N+]1(C)C[C@H](O)[C@H](C(=O)[O-])C1 number=1.02
molecule=OC1(c2ccc(Cl)c(C(F)(F)F)c2)CCN(CCCC(c2ccc(F)cc2)c2ccc(F)cc2)CC1 number=0.485
molecule="CC(=O)OCC(=O)[C@@]1(O)CCC2C3C[C@H](C)C4=CC(=O)C=CC4(C)C3[C@@H](O)CC21C (stereo not given in full)" number=1.02
molecule="CCC(=O)OCC(=O)C1(OC(=O)CC)C(C)CC2C3CCC4=CC(=O)C=CC4(C)C3(Cl)C(O)CC21C (stereo not given)" number=0.973
molecule=Nc1ccc(S(=O)(=O)Nc2ncccn2)cc1 number=0.97
molecule="CCC(=O)O[C@]1(C(=O)CCl)[C@@H](C)CC2C3CCC4=CC(=O)C=C[C@]4(C)[C@@]3(F)[C@@H](O)C[C@@]21C (stereo not given in full)" number=1.04
molecule="CCCCC(=O)O[C@]1(C(=O)CO)[C@@H](C)CC2C3CCC4=CC(=O)C=C[C@]4(C)[C@@]3(F)C(O)C[C@@]21C (stereo not given in full)" number=0.965
molecule=CC1(C)S[C@@H]2[C@H](NC(=O)[C@@H](N)c3ccc(O)cc3)C(=O)N2[C@H]1C(=O)O number=0.979
molecule="COC(=O)CC1C(C)(C)C(OC(C)=O)[C@@H]2[C@@H](OC(C)=O)[C@]34O[C@@]2(O)[C@]1(C)C3CC[C@]1(C)C4=CC(=O)O[C@H]1c1ccoc1 (stereo not given in full)" number=0.998
molecule="C[C@H]1[C@H](C)CC[C@]2(C(=O)O)CC[C@]3(C)C(=CCC4[C@@]5(C)C[C@@H](O)[C@H](O)[C@@](C)(CO)C5CC[C@]43C)[C@H]12 (stereo not given in full)" number=1.02
molecule="C[C@H]1[C@H](C)CC[C@]2(C(=O)O)CC[C@]3(C)C(=CCC4[C@@]5(C)C[C@@H](O)[C@H](O)[C@@](C)(CO)C5[C@H](O)C[C@]43C)[C@H]12 (stereo not given in full)" number=0.967
molecule="CC1=C2C(O)C(=O)OC3CC4C(C)(C)C(=O)C=C[C@]4(C)C(CC1)[C@]23C (stereo not given in full)" number=1.01
molecule="O=c1c2cc(O)c(O)cc2oc2cc(O)c(C3O[C@H](CO)[C@H](O)[C@@H](O)[C@H]3O)c(O)c12 (stereo not given in full)" number=1.01
molecule=CCC(=O)NCC[C@@H]1CCc2ccc3c(c21)CCO3 number=1.02
molecule="NC[C@@H]1O[C@H](O[C@@H]2[C@@H](CO)OC(O[C@@H]3[C@@H](O)[C@H](N)C[C@H](N)[C@H]3O[C@H]3O[C@H](CO)[C@@H](O)[C@H](O)[C@H]3N)[C@@H]2O)[C@H](N)[C@@H](O)[C@@H]1O (stereo not given in full)" number=0.984
